Reported GI50 values follow for various compounds
Test system: NCI-H23 lung
method-summary: NCI tumour cell line growth inhibition, 48 h
measurement-label: GI50

>>> observed_value("CCCCC/C(C=C(C#N)C#N)=C/c1ccccc1")
"3.62 µM"
>>> observed_value("O=C1c2c(c3c4ccccc4n(CCCCCCBr)c3c3[nH]c4ccccc4c23)C(=O)N1O")
"2.23 µM"
>>> observed_value("CN(C)CCNc1cc(-c2ccccc2)nc2ccccc12")
"11.2 µM"
>>> observed_value("Cc1cc(I)cc(CNCCCN2CCSCC2)c1O")
"20.9 µM"
>>> observed_value("O=C1/C(=C/c2ccc(Cl)cc2Cl)N=C(c2ccccc2)N1Cc1ccco1")
"26.2 µM"
>>> observed_value("COc1cc(/C=C/c2cc(/C=C/c3ccc(O)c(OC)c3)n(-c3ccccc3)n2)ccc1O")
"0.197 µM"
>>> observed_value("O=C(Nc1ccc(N2CCNCC2)cc1)c1[nH]ncc1Nc1cc(Oc2ccccc2)ncn1")
"2.12 µM"
>>> observed_value("Nc1ccn(C2O[C@H](CO)[C@@H](O)[C@@H]2O)c(=O)n1 (some centres not stated)")
"30.4 µM"
>>> observed_value("CC1=C(C(=O)Nc2ccc3[nH]ncc3c2)C(c2ccc3ccccc3c2)CC(=O)N1 (configuration not stated)")
"19 µM"
>>> observed_value("NCC(=O)NS(=O)(=O)OC[C@H]1O[C@@H](n2cnc3c(N)ncnc32)[C@H](O)[C@@H]1O")
"2.56 µM"
>>> observed_value("C=C(CN1CCc2ccccc2C1)c1ccc(C(=O)Nc2cnccn2)cc1")
"18.4 µM"
>>> observed_value("Cc1ccc(S(=O)(=O)N(CCOc2ccc(/C(N)=N/Cl)cc2)CCOc2ccc(/C(N)=N\\Cl)cc2)cc1")
"12 µM"
>>> observed_value("CCCCC(=O)OCC1OC(n2cnc3c(=S)nc[nH]c32)C(OC(=O)CCCC)C1OC(=O)CCCC (configuration not stated)")
"1.36 µM"
>>> observed_value("CC(C)CC(=O)[O-].CC(C)CC(=O)[O-].N.N.N.N.[Co+3].[O-][Cl+3]([O-])([O-])[O-]")
"> 100 µM"
>>> observed_value("CCOc1cccc(/C=N/NC(=O)c2ccccc2Nc2ccnc(C(F)(F)F)c2)c1O")
"1.08 µM"
>>> observed_value("CSc1ccc(C2=NN(C(C)=O)C(c3cc(C)cs3)C2)cc1 (configuration not stated)")
"29.9 µM"
>>> observed_value("CC1OC(O[C@H]2C[C@@H](O)[C@]3(CO)[C@H]4[C@H](O)C[C@]5(C)[C@@H](C6=CC(=O)OC6)CC[C@]5(O)[C@@H]4CC[C@]3(O)C2)C(O)C(O)C1O (some centres not stated)")
"21.5 µM"
